All values here come from PubChem BioAssay AID449762.

- Method notes: M. tuberculosis growth inhibition, HTS (AID 449762);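 further: bacterial growth assessed after seven days of incubation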
- Particulars: M. tuberculosis H37Rv growth inhibition, 7H9 media; at 25 µM; stronger effect = higher value
The whole screen tested about 330,000 compounds, of which about 1,900 (0.58%) were called active. Roughly 4% stayed inconclusive and do not appear here. These entries were drawn from the full list. Potency and affinity values are given separately.
Metric name: inhibition (%)

>>> measured_result("Cc1ccc(Cn2ccc(=O)c(OCc3ccccc3)c2C)cc1")
-1.87
>>> measured_result("COc1cccc(Cn2cnc3c(NS(=O)(=O)c4cc(Cl)ccc4Cl)c(C)c(C)cc32)c1")
0.44
>>> measured_result("CC(C)(C)c1ccc(C(=O)N2CCN(CCNC(=O)C(=O)NCc3ccccc3)CC2)cc1")
-0.83
>>> measured_result("CCOC(=O)c1ccccc1NC(=O)COC(=O)C1CCCC1")
27.5
>>> measured_result("O=C(CSc1nnc(NC2CCCCC2)s1)Nc1ccc2c(c1)C(=O)c1ccccc1C2=O")
4.12
>>> measured_result("COc1ccc(CN=C2NC(=O)CC(C(=O)Nc3ccc(Cl)cc3)S2)cc1 (configuration not stated)")
-3.21
>>> measured_result("CN(C)/C=C/C(=O)c1ccc([N+](=O)[O-])c(CS(=O)(=O)c2ccccc2)c1")
4.59
>>> measured_result("NNC(=O)COc1cccc(Oc2ccccc2)c1")
7.98
>>> measured_result("Cc1c(OCc2ccccc2)c(=O)ccn1Cc1ccccc1")
18
>>> measured_result("O=C(CN1CCN(c2ccccc2)CC1)NC(=O)NCc1ccco1")
-5.69
>>> measured_result("CC(=O)c1c(N2CCOCC2)[nH]c(-c2ccccc2)nc1=S")
43.5
>>> measured_result("O=C(c1ccccc1N(Cc1ccccc1)S(=O)(=O)c1ccccc1)N1CCOCC1")
-3.28
>>> measured_result("Cc1cc(C)n2nc(C(=O)OCC(=O)Nc3ccc(C)c(F)c3)nc2n1")
-2.78
>>> measured_result("CN(CCNC(=O)C1CCCN(c2ncnc3c2nc2n3CCCCC2)C1)Cc1ccccc1 (configuration not stated)")
-0.58
>>> measured_result("O=C(COc1ccccc1)Nc1ncccn1")
-7.9
>>> measured_result("COc1ccccc1N1CCN(/N=C\\c2ccccc2)CC1")
4.03
>>> measured_result("Cc1ccc(C(=O)N2CCN(CCNC(=O)C(=O)NCc3ccc(Cl)cc3)CC2)cc1")
4.33
>>> measured_result("Cn1ccnc1SCC(=O)NCC(=O)Nc1ccc(F)c(F)c1F")
1.26
>>> measured_result("Cc1ccc(N2CCN(/N=C/C(Cl)=C/c3ccccc3)CC2)cc1")
4.03
>>> measured_result("COC(=O)N/N=C/c1ccccc1Cl")
-1.15
>>> measured_result("Cc1oc(-c2cccc(Cl)c2)nc1CSc1nc2c(c(=O)[nH]1)CCC2")
-10.8
>>> measured_result("COc1cc(/C=C2/C(=N)N3N=C(CC(=O)N4CCOCC4)SC3=NC2=O)ccc1OCc1ccccc1F")
0.04

---

- Method notes: M. tuberculosis growth inhibition, HTS (AID 449762);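 further: bacterial growth assessed after seven days of incubation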
- Particulars: M. tuberculosis H37Rv growth inhibition, 7H9 media; at 25 µM; stronger effect = higher value
Out of some 330,000 compounds screened, about 1,900 (0.58%) were called active. About 4% were inconclusive and are not listed. These entries were drawn from the full list. Entries with a potency or affinity are not part of this list.
Metric name: inhibition (%)

>>> measured_result("CCc1cc2c(=O)n(CC(=O)NCCc3ccc(OC)c(OC)c3)cnc2s1")
-7.38
>>> measured_result("Cc1ccc(C(c2c(C)nn(-c3ccccc3)c2N)c2c(C)nn(-c3ccccc3)c2N)cc1")
23.1
>>> measured_result("CCC(=NCc1ccccc1)c1c(C(F)(F)F)[nH]n(-c2nc3ccccc3s2)c1=O")
-0.69
>>> measured_result("Cc1cc(C)n(-c2ccc(C(=O)NCc3cccs3)cc2)n1")
-8.74
>>> measured_result("CCOC(=O)/C(=N\\Nc1ccc(C(C)=O)cc1)c1csc(Nc2ccccc2)n1")
-1.99
>>> measured_result("CCOC(=O)/C(=N\\Nc1ccccc1)c1csc(Nc2ccc(C)cc2)n1")
7.86
>>> measured_result("O=S(=O)([N-]c1nc2ccccc2nc1-n1cc[n+](Cc2ccccc2)c1)c1ccccc1")
1.97
>>> measured_result("CCN(CC)C(=O)c1cc2cc([N+](=O)[O-])ccc2s1")
6.23
>>> measured_result("COC(=O)C1=C(C)N(C)C(=O)NC1c1cc2c(cc1Br)OCO2 (centres undefined)")
-1.06
>>> measured_result("COC(=O)[C@H](CCSC)NC(=O)NCc1cccs1")
-7.69
>>> measured_result("COc1ccc(C2=CSC3=NCCN23)cc1")
4.38
>>> measured_result("NNC(=O)c1sccc1OCc1ccc(Cl)cc1Cl")
39.9
>>> measured_result("COCCNC(=S)N/N=C(\\C)CCc1ccc2c(c1)OCO2")
8.49
>>> measured_result("NC(=O)C1CCN(CCCNC2CC(=O)N(Cc3ccc(N4CCCC4=O)cc3)C2=O)CC1 (centres undefined)")
-6.69
>>> measured_result("CC1(C)CC[C@]2(C(=O)O[C@@H]3OC(CO)[C@@H](O)[C@H](O)[C@H]3O)CC[C@]3(C)C(=CCC4[C@@]5(C)CC[C@H](O[C@@H]6OC(C(=O)O)[C@@H](O)[C@H](O)[C@H]6O)C(C)(C)C5CC[C@]43C)[C@@H]2C1 (some centres undefined)")
1.92
>>> measured_result("Cc1ccc(OCc2cc(C(=O)NCCn3cccn3)no2)cc1C")
10.8
>>> measured_result("Nc1ncnc(Sc2ccc(Cl)cc2)c1[N+](=O)[O-]")
2.27
>>> measured_result("O=C(CCC(=O)OCc1ccc(Br)cc1)Nc1ccccc1")
-10.8
>>> measured_result("Cc1cc([N+](=O)[O-])nn1CC(=O)Nc1cnc2ccccc2c1")
-3.67
>>> measured_result("COc1cccc(CNCc2ccc(OC)cc2OC)c1")
1.71
>>> measured_result("CCCCN1C(=O)c2ccc(C(=O)Nc3cccnc3)cc2C1=O")
48.5
>>> measured_result("O=C(COC(=O)C1=Cc2ccccc2OC1)NCc1ccccc1")
-0.53
>>> measured_result("Cc1oc2nc(SCC(=O)NC3CCCCC3)nc(N)c2c1C")
3.18
>>> measured_result("NCC(c1ccc(Cl)cc1Cl)c1c[nH]c2ccccc12 (centres undefined)")
34.8
>>> measured_result("COc1ccc(CCNC(=O)c2ccc(Cl)cc2)cc1")
15.5
>>> measured_result("CCN(CC)C(=O)c1ccc(Oc2ccc([N+](=O)[O-])cc2Cl)cc1")
4.15
>>> measured_result("Cc1ccc(-c2nc(C(=O)NCCCN3CCOCC3)cc3c2[nH]c2ccccc23)cc1")
-3.27
>>> measured_result("Cc1nc2ccccc2n1CCc1ccccc1")
-2.95
>>> measured_result("Cc1ccc(Sc2ncnc(N)c2[N+](=O)[O-])cc1")
4.72
>>> measured_result("O=C(Nc1ccc(S(=O)(=O)Nc2ncccn2)cc1)c1ccco1")
-1.81
>>> measured_result("COc1cccc(CN2CCN(Cc3cc4ccccc4o3)CC2CCO)c1 (centres undefined)")
-6.38
>>> measured_result("OCC[C@H]1C[C@@H](O)[C@H](O)[C@@]2(Cc3ccccc3CO2)O1")
-8.04
>>> measured_result("COc1ccc(NC(=O)CCC(=O)OCc2ccc(C(=O)Oc3ccc(Cl)cc3)cc2)cc1")
-10.2
>>> measured_result("C/C(CCc1ccc2c(c1)OCO2)=N\\NC(=O)c1ccccc1")
1.21
>>> measured_result("CCn1c2ccccc2c2cc(CN3CCN(S(=O)(=O)CC)CC3)ccc21")
10.3
>>> measured_result("COc1ccc(CCNC(=O)C2CCCN(c3ncnc4c3nc3n4CCCCC3)C2)c(OC)c1 (centres undefined)")
3.42
>>> measured_result("COCCCNC(=O)Nc1ccc2c(c1)N(C)C(=O)CS2")
1.24
>>> measured_result("COc1ccccc1C1=NOC(C)(c2nnc(Cc3ccccc3)o2)C1 (centres undefined)")
-2.16
>>> measured_result("O=C(CNC(=O)c1ccco1)OCc1ccc(C(=O)c2ccccc2)cc1")
14.1
>>> measured_result("COc1cccc(NC(=O)CN(C)C(=O)c2ccccc2Sc2ccccc2C#N)c1")
-24
>>> measured_result("COc1ccccc1C(=O)NC(=O)Nc1c(C)cc(C)cc1C")
1.95
>>> measured_result("COC(=O)c1c(NC(=O)CCC(=O)O)sc2c1CCCCC2")
19.9
>>> measured_result("COc1ccc(CNCc2ccc3ccccc3c2)c(OC)c1")
12.2
>>> measured_result("COc1ccc(C(=O)NCC(=O)NCC(=O)OCc2ccc(Cl)cc2)cc1")
8.99
